Attribution: ChEMBL document CHEMBL1201862

GI50, HCT-15, per-entry values.
Please give a number only; it is taken to be in µM.

Below, each entry is followed by its recorded GI50 result.
- Compound: "CCOC(=O)C(CC(C)C)NC(=O)CSc1nnc(COc2ccc(Cl)cc2)n1-c1ccccc1 (configuration not stated)"
  GI50 [µM]: 18.5
- Compound: "CC1CCCc2c(-c3ccc(Cl)cc3)nc(N)c(C#N)c21 (configuration not stated)"
  GI50 [µM]: 31
- Compound: "Oc1cc(-c2ccccc2)c2ccccc2n1"
  GI50 [µM]: 58.9
- Compound: "COCCN(CCOC)C(=O)COc1c2cc(C(C)(C)C)cc1Cc1cc(C(C)(C)C)cc(c1OCC(=O)N(CCOC)CCOC)Cc1cc(C(C)(C)C)cc(c1OCC(=O)N(CCOC)CCOC)Cc1cc(C(C)(C)C)cc(c1OCC(=O)N(CCOC)CCOC)Cc1cc(C(C)(C)C)cc(c1OCC(=O)N(CCOC)CCOC)C2"
  GI50 [µM]: 2.81
- Compound: "CO[C@@]12CC(=O)/C(=C(O)\\C=C\\c3ccccc3)C(=O)[C@]1(OC)Cc1ccccc1O2"
  GI50 [µM]: 20
- Compound: "COc1c2c(c(O)c3c4c(c(C)cc13)C1OC3(C(OC)OC5CC(C)(O)C(OC6CC(C)(O)C(O)C(C)O6)C(C)O5)OC1C(OC)(O4)C31CO1)C(=O)C(O)CC2OC1CC(C)(O)C(OC(C)=O)C(C)O1 (configuration not stated)"
  GI50 [µM]: 0.0767
- Compound: "C[C@]12CC[C@H]3[C@@H](CCC4=C[C@@H](N5CCCC5)CC[C@@]43C)[C@@H]1C/C(=C\\c1ccncc1)[C@@H]2O"
  GI50 [µM]: 8.43

Here's the next entry for you.
Query string: Lab note: need GI50 with HCT-15 for entry O=[As](O)(O)c1cc(/N=N/c2ccc(-c3ccc(/N=N/c4cc([As](=O)(O)O)c(O)cc4O)cc3)cc2)c(O)cc1O , please look it up.
Result string: 97.1

###

Test system: CCRF-CEM
Procedure Details: NCI tumour cell line growth inhibition, 48 h
Active and inactive are the calls of the source. No stated cut-off is given here; in the data, active = GI50 up to about 1.1 µM and inactive = higher.
Recorded GI50 by entry

- Compound: "O=C(O)c1ccc(S(=O)(=O)c2ccccc2)c([N+](=O)[O-])c1"
  Assay Result: "> 100 µM (inactive)"
- Compound: "CC(C)(C)OC(=O)[C@@H]1ON2O[C@H](OC3CCCC3(c3ccccc3)c3ccccc3)C[C@H]3OC(=O)[C@@H]1[C@H]32 (stereo not given in full)"
  Assay Result: "> 100 µM (inactive)"
- Compound: "Cc1cccc2c1NC(=O)/C2=N\\Nc1ccccc1[N+](=O)[O-]"
  Assay Result: "6.3 µM (inactive)"
- Compound: "COCCOC1=C(Cl)C(=O)c2c(O)ccc(O)c2C1=O"
  Assay Result: "0.111 µM (active)"
- Compound: "CCCCc1c2c(nc3c1CCC/C3=C\\c1ccccc1)/C(=C/c1ccccc1)CCC2"
  Assay Result: "> 100 µM (inactive)"

Here's the next entry for you.
Query string: Data request, read-out GI50, for c1ccc(N/N=C2\CC(c3ccccc3)Oc3ccccc32)cc1 (stereo not given)
Result string: 33 µM (inactive)

###

Test system: SK-MEL-5
Procedure Details: NCI tumour cell line growth inhibition, 48 h
Calls of active or inactive are those of the source. No stated cut-off is given here; in the data, active = GI50 up to about 1.1 µM and inactive = higher.
Measured Endpoint: GI50

- Compound: "CCC(=O)Nc1ccc(N2C(=O)/C(=C/c3ccc(O)c(OC)c3)N=C2c2ccccc2)cc1"
  Assay Result: "14.3 µM (inactive)"
- Compound: "CCOC(=O)NC(=O)c1cn(C2OC(COC(=O)CCCCCCCCC(=O)OCC3OC(n4cc(C(=O)NC(=O)OCC)c(=O)[nH]c4=O)C4OC(C)(C)OC34)C3OC(C)(C)OC32)c(=O)[nH]c1=O (centres undefined)"
  Assay Result: "54.1 µM (inactive)"
- Compound: "C=CCn1c(=O)c(C)cn(/C(=C/C(=O)OCC)C(=O)OCC)c1=O"
  Assay Result: "18 µM (inactive)"

Here's the next entry for you.
Query string: Data request, read-out GI50, for O=C1NC2(CCN(CCc3ccccc3)CC2)Oc2ccccc21
Result string: 14.5 µM (inactive)

###

Test system: HCT-116
Procedure Details: NCI tumour cell line growth inhibition, 48 h
Calls of active or inactive are those of the source. Rule as the data show it: active = GI50 up to about 1.1 µM and inactive = higher.
Measured Endpoint: GI50

Query string: Data request, read-out GI50, for Cc1cc(N(CCC#N)CCC#N)ccc1/C=C1N=C(/C=C/c2ccccc2)OC(=O)N\1
Result string: > 100 µM (inactive)

###

Test system: TK-10
Procedure Details: NCI tumour cell line growth inhibition, 48 h
Calls of active or inactive are those of the source. Cut-off read from the data, not from the text of the source: active = GI50 up to about 1.1 µM and inactive = higher.
Measured Endpoint: GI50

- Molecule: "Brc1ccc2[nH]cc([C@H]3CN[C@@H](c4c[nH]c5ccc(Br)cc45)CN3)c2c1"
  Assayed Target: "TK-10"
  Assay Result: "2.26 µM (inactive)"
- Molecule: "O=[N+]([O-])c1ccc(/C=N/C2CCCCC2)cc1"
  Assayed Target: "TK-10"
  Assay Result: "> 100 µM (inactive)"
- Molecule: "Cn1ccc2c(C(=O)c3ccccc3)cccc2c1=O"
  Assayed Target: "TK-10"
  Assay Result: "> 100 µM (inactive)"

Query string: Data request, read-out GI50, for COC(=O)/C(C)=C(/CCC1(C)OCCO1)O[Si](C)(C)C
Result string: > 100 µM (inactive)

Query string: Data request, read-out GI50, for N#C/C(=C\c1ccc2[nH]ccc2c1)C(=O)c1ccc(O)c(O)c1
Result string: > 72.1 µM (inactive)

Query string: Data request, read-out GI50, for O=C1OC(c2cccc(C(F)(F)F)c2)c2ccc3ccccc3c21 (stereo unspecified)
Result string: > 10 µM (inactive)

###

Recorded GI50 by entry
System: HCT-116
Procedure Details: NCI tumour cell line growth inhibition, 48 h
Activity calls are given as the source filed them. Cut-off read from the data, not from the text of the source: active = GI50 up to about 1.1 µM and inactive = higher.

Below, each entry is followed by its recorded GI50 result.
- Molecule: "Clc1ccc(/C=c2\\nc(-c3ccccc3)n3c2nc2ccccc23)cc1"
  GI50: "> 100 µM (inactive)"
- Molecule: "O=C1C(Cl)=C(NCCCN2CCOCC2)C(=O)c2c(O)ccc(O)c21"
  GI50: "1.59 µM (inactive)"
- Molecule: "CO[P@@]1(=O)O[C@@H](c2ccccc2)[C@H](O)[C@]1(O)c1ccccc1"
  GI50: "> 100 µM (inactive)"
- Molecule: "CCOC(=O)c1c2ccccc2n2c(=O)n(-c3ccccc3)nnc12"
  GI50: "73.8 µM (inactive)"
- Molecule: "c1cn[nH]c1"
  GI50: "> 10 µM (inactive)"

Query string: Data request, read-out GI50, for CC(C)(C)[Si](C)(C)OC1CCOC1(O)c1ccccn1 (stereo unspecified)
Result string: > 100 µM (inactive)

###

Test system: OVCAR-8
Procedure Details: NCI tumour cell line growth inhibition, 48 h
The source made the active and inactive calls. Cut-off read from the data, not from the text of the source: active = GI50 up to about 1.1 µM and inactive = higher.
Measured Endpoint: GI50

Query string: Data request, read-out GI50, for O=P1(C(O)c2ccccc2)N(Cc2ccccc2)[C@@H]2CCCC[C@H]2N1Cc1ccccc1 (stereo partly specified)
Result string: 31 µM (inactive)

###

Recorded GI50 by entry
Tested on: IGROV-1
Procedure Details: NCI tumour cell line growth inhibition, 48 h
The source made the active and inactive calls. No stated cut-off is given here; in the data, active = GI50 up to about 1.1 µM and inactive = higher. Where a SMILES comes first, the peptide text is derived from it. [ ]: non-standard residue; d: D form. The star is where a group is joined. ξ: configuration not given here. NMeF = CN[C@@H](Cc1ccccc1)C(=O)O; NMeV = CN[C@H](C(=O)O)C(C)C; ξNMeN = CNC(CC(N)=O)C(=O)O; NMeA = CN[C@@H](C)C(=O)O; ξNMeV = CNC(C(=O)O)C(C)C; Boc = CC(C)(C)OC(=O)*

- Compound: "COc1ccc2nc(N/N=C/c3sccc3C)cc(C)c2c1"
  Assayed Target: "IGROV-1"
  Measured Endpoint: "GI50"
  Assay Result: "15.1 µM (inactive)"
- Compound: "CCN1CCC(O)(/C=C/c2ccccc2C)C(C(=O)/C=C/c2ccccc2C)C1 (stereo not given)"
  Assayed Target: "IGROV-1"
  Measured Endpoint: "GI50"
  Assay Result: "3.62 µM (inactive)"
- Compound: "CC(C)[C@H](NC(=O)[C@@H](O)[C@H](N)Cc1ccccc1)C(=O)N[C@@H](Cc1ccccc1)C(=O)O"
  Assayed Target: "IGROV-1"
  Measured Endpoint: "GI50"
  Assay Result: "> 100 µM (inactive)"
- Compound: "CN1CCC/C1=C1\\C(=O)c2cccn2C1=O"
  Assayed Target: "IGROV-1"
  Measured Endpoint: "GI50"
  Assay Result: "> 100 µM (inactive)"

Query string: Data request, read-out GI50, for COC(=O)[C@H](C)N(C)C(=O)C(CC(N)=O)N(C)C(=O)[C@H](Cc1ccccc1)N(C)C(=O)[C@@H]1CCCN1C(=O)[C@H](C(C)C)N(C)C(=O)C(C(C)C)N(C)C(=O)[C@@H](NC(=O)OC(C)(C)C)C(C)C (stereo not given in full) (Boc-V[ξNMeV][NMeV]P[NMeF][ξNMeN][NMeA]-OMe)
Result string: > 50 µM (inactive)

Query string: Data request, read-out GI50, for CCCCCCC(/C=N/O)C(C)(O)CCC (stereo not given)
Result string: > 100 µM (inactive)
